# measured.on: BCR-ABL (Homo sapiens, UniProt P00519)
# Sequence (P00519 with tags, fused parts or gaps): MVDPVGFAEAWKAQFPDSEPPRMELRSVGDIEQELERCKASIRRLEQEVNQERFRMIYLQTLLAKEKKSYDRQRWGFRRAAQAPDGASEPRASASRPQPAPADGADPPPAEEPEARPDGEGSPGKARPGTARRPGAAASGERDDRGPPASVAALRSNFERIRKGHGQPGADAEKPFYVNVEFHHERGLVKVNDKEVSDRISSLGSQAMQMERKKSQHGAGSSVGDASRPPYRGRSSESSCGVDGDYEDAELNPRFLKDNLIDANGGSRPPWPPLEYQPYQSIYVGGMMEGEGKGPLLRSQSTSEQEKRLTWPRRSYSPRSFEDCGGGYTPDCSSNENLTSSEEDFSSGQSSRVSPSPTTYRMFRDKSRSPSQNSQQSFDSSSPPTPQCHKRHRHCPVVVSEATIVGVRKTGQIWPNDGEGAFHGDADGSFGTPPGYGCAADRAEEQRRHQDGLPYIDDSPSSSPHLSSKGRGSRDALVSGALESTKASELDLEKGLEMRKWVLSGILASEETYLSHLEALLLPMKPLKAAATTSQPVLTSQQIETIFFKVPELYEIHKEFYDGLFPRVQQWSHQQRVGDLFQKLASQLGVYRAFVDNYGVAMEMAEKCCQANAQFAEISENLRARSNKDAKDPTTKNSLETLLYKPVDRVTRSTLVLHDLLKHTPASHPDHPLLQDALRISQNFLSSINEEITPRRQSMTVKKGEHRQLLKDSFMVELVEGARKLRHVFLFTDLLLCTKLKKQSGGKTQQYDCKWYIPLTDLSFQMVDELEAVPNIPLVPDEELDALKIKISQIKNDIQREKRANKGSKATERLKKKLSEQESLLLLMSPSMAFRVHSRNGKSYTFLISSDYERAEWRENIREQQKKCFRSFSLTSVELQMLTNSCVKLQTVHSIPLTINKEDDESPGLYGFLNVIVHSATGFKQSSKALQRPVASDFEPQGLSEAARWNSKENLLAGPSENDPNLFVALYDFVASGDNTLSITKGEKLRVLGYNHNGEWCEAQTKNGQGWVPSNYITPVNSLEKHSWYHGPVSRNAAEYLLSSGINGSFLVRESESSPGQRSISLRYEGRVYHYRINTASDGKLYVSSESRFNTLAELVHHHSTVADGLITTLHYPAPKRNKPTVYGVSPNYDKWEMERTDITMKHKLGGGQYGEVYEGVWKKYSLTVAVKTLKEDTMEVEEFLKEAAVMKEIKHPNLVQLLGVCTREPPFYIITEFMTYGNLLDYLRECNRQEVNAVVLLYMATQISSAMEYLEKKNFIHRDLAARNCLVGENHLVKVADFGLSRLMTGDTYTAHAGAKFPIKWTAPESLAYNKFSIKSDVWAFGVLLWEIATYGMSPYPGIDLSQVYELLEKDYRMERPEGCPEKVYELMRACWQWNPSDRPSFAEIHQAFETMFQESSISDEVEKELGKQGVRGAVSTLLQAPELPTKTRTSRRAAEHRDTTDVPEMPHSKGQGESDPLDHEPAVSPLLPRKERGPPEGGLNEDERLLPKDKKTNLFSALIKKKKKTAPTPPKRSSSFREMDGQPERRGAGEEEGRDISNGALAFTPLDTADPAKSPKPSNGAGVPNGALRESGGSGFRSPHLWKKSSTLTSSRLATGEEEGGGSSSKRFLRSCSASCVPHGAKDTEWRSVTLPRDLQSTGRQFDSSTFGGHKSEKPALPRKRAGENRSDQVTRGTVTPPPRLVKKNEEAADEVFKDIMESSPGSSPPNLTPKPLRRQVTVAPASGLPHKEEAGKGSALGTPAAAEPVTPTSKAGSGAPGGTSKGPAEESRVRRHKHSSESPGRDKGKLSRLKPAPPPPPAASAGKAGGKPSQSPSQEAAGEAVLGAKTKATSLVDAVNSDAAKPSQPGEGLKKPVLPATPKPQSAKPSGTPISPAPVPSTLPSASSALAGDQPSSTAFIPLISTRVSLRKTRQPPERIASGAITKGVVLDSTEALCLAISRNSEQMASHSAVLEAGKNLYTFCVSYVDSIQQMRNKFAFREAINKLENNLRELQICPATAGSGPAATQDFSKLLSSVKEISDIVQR
# test.details: Western-blot half-degradation concentration (DC50) / degradation of BCR-ABL in K562 cells
# applied.conditions: read-out: DC50 (nM)/K562 cell line, BCR-ABL protein degradation, 24 hours, Western-blot
assay.metric: DC50 (nM)
Give the value, in units of nM, as a plain number.

Cc1nc(Nc2ncc(C(=O)Nc3c(C)cccc3Cl)s2)cc(N2CCN(C(=O)CCCCCSc3cccc4c3C(=O)N(C3CCC(=O)NC3=O)C4=O)CC2)n1 (stereo not drawn): 0.8
Cc1nc(Nc2ncc(C(=O)Nc3c(C)cccc3Cl)s2)cc(N2CCN(C(=O)CSc3cccc4c3CN(C3CCC(=O)NC3=O)C4=O)CC2)n1 (stereo not drawn): 56.7
Cc1nc(Nc2ncc(C(=O)Nc3c(C)cccc3Cl)s2)cc(N2CCN(C(=O)CCCCSc3cccc4c3C(=O)N(C3CCC(=O)NC3=O)C4=O)CC2)n1 (stereo not drawn): 2
Cc1nc(Nc2ncc(C(=O)Nc3c(C)cccc3Cl)s2)cc(N2CCN(C(=O)CCCSc3cccc4c3C(=O)N(C3CCC(=O)NC3=O)C4=O)CC2)n1 (stereo not drawn): 20.7
Cc1nc(Nc2ncc(C(=O)Nc3c(C)cccc3Cl)s2)cc(N2CCN(C(=O)C[S+]([O-])c3cccc4c3C(=O)N(C3CCC(=O)NC3=O)C4=O)CC2)n1 (stereo not drawn): 483

### Prompt Item Cc1nc(Nc2ncc(C(=O)Nc3c(C)cccc3Cl)s2)cc(N2CCN(C(=O)CCCSc3cccc4c3CN(C3CCC(=O)NC3=O)C4=O)CC2)n1 (stereo not drawn) has what recorded DC50?
### Response 5.2

====

# measured.on: ALK protein (Homo sapiens)
# test.details: Western-blot half degradation concentration (DC50) of ALK protein in SR cells
# Format: cell-based
# applied.conditions: 24 h drug treatment, read-out: DC50 (nM)/ SR cell line
# Protocol: ALK-positive SR cells (human large cell immunoblastic lymphoma) were purchased from the American Type Culture Collection (ATCC); H3122 cells (human non-small cell lung cancer) were from the Shanghai University of Science and Technology Lin Haifan's research group. The cells used in this present disclosure were cultured in a 37° C. incubator containing 5% CO2. […]
# Sequence (Q9UM73 with tags, fused parts or gaps): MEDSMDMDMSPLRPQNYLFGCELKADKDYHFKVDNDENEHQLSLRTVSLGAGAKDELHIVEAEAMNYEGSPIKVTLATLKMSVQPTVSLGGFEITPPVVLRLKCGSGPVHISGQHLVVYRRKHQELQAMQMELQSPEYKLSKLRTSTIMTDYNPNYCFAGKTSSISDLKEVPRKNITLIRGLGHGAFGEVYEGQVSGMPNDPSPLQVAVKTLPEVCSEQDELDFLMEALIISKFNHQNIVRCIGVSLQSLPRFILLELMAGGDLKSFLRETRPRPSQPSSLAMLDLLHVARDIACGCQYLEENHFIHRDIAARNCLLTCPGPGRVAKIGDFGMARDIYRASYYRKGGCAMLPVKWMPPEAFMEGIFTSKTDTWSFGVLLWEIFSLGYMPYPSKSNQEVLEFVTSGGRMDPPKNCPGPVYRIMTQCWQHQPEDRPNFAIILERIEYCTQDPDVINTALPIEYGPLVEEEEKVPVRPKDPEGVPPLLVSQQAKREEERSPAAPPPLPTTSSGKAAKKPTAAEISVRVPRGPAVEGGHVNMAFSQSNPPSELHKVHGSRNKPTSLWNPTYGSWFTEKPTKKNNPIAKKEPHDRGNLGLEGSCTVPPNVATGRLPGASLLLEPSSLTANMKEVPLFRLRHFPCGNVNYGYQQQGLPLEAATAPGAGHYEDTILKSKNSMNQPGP
Readings of DC50 for the listed compounds
Give the value, in units of nM, as a plain number.

### Prompt Item COc1cc(N2CCC(N3CCN(C(=O)CCCSc4cccc5c4C(=O)N(C4CCC(=O)NC4=O)C5=O)CC3)CC2)ccc1Nc1ncc(Cl)c(Nc2ccccc2P(C)(C)=O)n1 (stereo not drawn) has what recorded DC50?
### Response 1.1

### Prompt Item COc1cc(N2CCC(N3CCN(C(=O)CCCCCSc4cccc5c4C(=O)N(C4CCC(=O)NC4=O)C5=O)CC3)CC2)ccc1Nc1ncc(Cl)c(Nc2ccccc2P(C)(C)=O)n1 (stereo not drawn) has what recorded DC50?
### Response 5.2

====

Readings of IC50 for the listed molecules
# Test system: MDA-MB-231 cells
# test.details: Half inhibitory concentration (IC50) on BET-expressing tumor cells, CCK-8, MDA-MB-231
# Format: cell-based
# applied.conditions: Homo sapiens, 48/72 h, read-out: IC50 (nM)/MDA-MB-231 cell line
Give the value, in units of nM, as a plain number.

// below: answered molecules
Cc1sc2c(c1C)C(c1ccc(Cl)cc1)=N[C@@H](CC(=O)NCCSc1cccc3c1C(=O)N(C1CCC(=O)NC1=O)C3=O)c1nnc(C)n1-2 (stereo partly drawn) [SIAIS171036]: 242
Cc1sc2c(c1C)C(c1ccc(Cl)cc1)=N[C@@H](CC(=O)NCCCCCSc1cccc3c1C(=O)N(C1CCC(=O)NC1=O)C3=O)c1nnc(C)n1-2 (stereo partly drawn) [SIAIS171038]: 182

Now look at this entry.
### Prompt Item Cc1sc2c(c1C)C(c1ccc(Cl)cc1)=N[C@@H](CC(=O)NCCCCCCCCSc1cccc3c1C(=O)N(C1CCC(=O)NC1=O)C3=O)c1nnc(C)n1-2 (stereo partly drawn) [SIAIS171049] has what recorded IC50?
### Response 645

====

# System: MDA-MB-231 cells
# test.details: Half inhibitory concentration (IC50) on BET-expressing tumor cells, CCK-8, MDA-MB-231
# Assay type: cell-based
# applied.conditions: Homo sapiens, 48/72 h, read-out: IC50 (nM)/MDA-MB-231 cell line
assay.metric: IC50 (nM)
Give the value, in units of nM, as a plain number.

Cc1sc2c(c1C)C(c1ccc(Cl)cc1)=N[C@@H](CC(=O)NCCCCSc1cccc3c1CN(C1CCC(=O)NC1=O)C3=O)c1nnc(C)n1-2 (some centres unmarked): 19.9

### Prompt Test system MDA-MB-231 cells; read-out IC50; what value for Cc1sc2c(c1C)C(c1ccc(Cl)cc1)=N[C@@H](CC(=O)NCCCCCSc1cccc3c1CN(C1CCC(=O)NC1=O)C3=O)c1nnc(C)n1-2 (some centres unmarked) ?
### Response 17.7

====

# measured.on: ALK protein (Homo sapiens, UniProt Q9UM73)
# test.details: Western-blot half degradation concentration (DC50) of ALK protein in H3122 cells
# Format: cell-based
# applied.conditions: 24 h drug treatment, read-out: DC50 (nM)/ H3122 cell line
# Experimental: ALK-positive SR cells (human large cell immunoblastic lymphoma) were purchased from the American Type Culture Collection (ATCC); H3122 cells (human non-small cell lung cancer) were from the Shanghai University of Science and Technology Lin Haifan's research group. The cells used in this present disclosure were cultured in a 37° C. incubator containing 5% CO2. […]
# Sequence (Q9UM73 with tags, fused parts or gaps): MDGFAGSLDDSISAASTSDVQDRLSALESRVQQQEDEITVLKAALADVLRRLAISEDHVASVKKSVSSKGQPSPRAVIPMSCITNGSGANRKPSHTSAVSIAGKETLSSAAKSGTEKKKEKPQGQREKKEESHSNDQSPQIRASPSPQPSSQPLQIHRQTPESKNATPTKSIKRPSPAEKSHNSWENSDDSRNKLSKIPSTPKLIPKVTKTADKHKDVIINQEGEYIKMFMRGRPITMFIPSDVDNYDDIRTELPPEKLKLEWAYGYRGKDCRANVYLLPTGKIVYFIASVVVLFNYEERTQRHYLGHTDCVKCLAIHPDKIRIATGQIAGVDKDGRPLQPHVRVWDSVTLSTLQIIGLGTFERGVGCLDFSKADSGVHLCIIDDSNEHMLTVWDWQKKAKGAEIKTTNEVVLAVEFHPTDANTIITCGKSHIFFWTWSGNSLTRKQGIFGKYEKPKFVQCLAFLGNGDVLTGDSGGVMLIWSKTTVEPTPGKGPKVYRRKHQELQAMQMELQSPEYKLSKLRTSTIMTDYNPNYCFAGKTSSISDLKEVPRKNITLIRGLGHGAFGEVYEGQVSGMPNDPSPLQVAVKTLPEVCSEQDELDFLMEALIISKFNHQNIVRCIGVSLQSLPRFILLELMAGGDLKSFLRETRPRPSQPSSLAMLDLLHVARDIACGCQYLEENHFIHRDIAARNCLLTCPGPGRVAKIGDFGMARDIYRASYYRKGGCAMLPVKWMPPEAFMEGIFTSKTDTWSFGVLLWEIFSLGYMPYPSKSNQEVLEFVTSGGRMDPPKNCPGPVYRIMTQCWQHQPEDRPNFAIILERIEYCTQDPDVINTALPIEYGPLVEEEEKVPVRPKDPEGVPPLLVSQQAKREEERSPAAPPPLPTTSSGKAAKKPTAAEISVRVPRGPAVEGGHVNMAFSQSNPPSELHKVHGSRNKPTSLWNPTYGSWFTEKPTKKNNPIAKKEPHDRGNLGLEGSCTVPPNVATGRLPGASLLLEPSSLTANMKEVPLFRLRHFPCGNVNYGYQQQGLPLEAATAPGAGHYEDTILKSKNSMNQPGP
Readings of log10(DC50) for the listed compounds
Lab note - DC50 converted to log10 from values in nM.

COc1cc(N2CCN(C(=O)CCCSc3cccc4c3C(=O)N(C3CCC(=O)NC3=O)C4=O)CC2)ccc1Nc1ncc(Cl)c(Nc2ccccc2P(C)(C)=O)n1 (stereo not shown): 2.70

### Prompt Item COc1cc(N2CCC(N3CCN(C(=O)CSc4cccc5c4C(=O)N(C4CCC(=O)NC4=O)C5=O)CC3)CC2)ccc1Nc1ncc(Cl)c(Nc2ccccc2P(C)(C)=O)n1 (stereo not shown) has what recorded log10(DC50)?
### Response 1.11

### Prompt Item COc1cc(N2CCN(C(=O)CCCCCCSc3cccc4c3C(=O)N(C3CCC(=O)NC3=O)C4=O)CC2)ccc1Nc1ncc(Cl)c(Nc2ccccc2P(C)(C)=O)n1 (stereo not shown) has what recorded log10(DC50)?
### Response 2.70

### Prompt Item COc1cc(N2CCC(NC(=O)CSc3cccc4c3C(=O)N(C3CCC(=O)NC3=O)C4=O)CC2)ccc1Nc1ncc(Cl)c(Nc2ccccc2P(C)(C)=O)n1 (stereo not shown) has what recorded log10(DC50)?
### Response 2.70

====

# Test system: MDA-MB-231 cells
# test.details: Half inhibitory concentration (IC50) on BET-expressing tumor cells, CCK-8, MDA-MB-231
# Type: cell-based
# applied.conditions: Homo sapiens, 48/72 h, read-out: IC50 (nM)/MDA-MB-231 cell line
Readings of IC50 for the listed compounds
Give the value, in units of nM, as a plain number.

Cc1sc2c(c1C)C(c1ccc(Cl)cc1)=N[C@@H](CC(=O)NCCCCCCCSc1cccc3c1CN(C1CCC(=O)NC1=O)C3=O)c1nnc(C)n1-2 (stereo partly shown) [SIAIS171144]: 55
Cc1sc2c(c1C)C(c1ccc(Cl)cc1)=N[C@@H](CC(=O)NCCCCCCCSc1cccc3c1C(=O)N(C1CCC(=O)NC1=O)C3=O)c1nnc(C)n1-2 (stereo partly shown) [SIAIS171040]: 69
Cc1sc2c(c1C)C(c1ccc(Cl)cc1)=N[C@@H](CC(=O)NCCCCSc1cccc3c1C(=O)N(C1CCC(=O)NC1=O)C3=O)c1nnc(C)n1-2 (stereo partly shown) [SIAIS171037]: 88

### Prompt Item Cc1sc2c(c1C)C(c1ccc(Cl)cc1)=N[C@@H](CC(=O)NCCCCCCSc1cccc3c1C(=O)N(C1CCC(=O)NC1=O)C3=O)c1nnc(C)n1-2 (stereo partly shown) [SIAIS171039] has what recorded IC50?
### Response 98

====

Readings of DC50 for the listed molecules
# measured.on: ALK protein (Homo sapiens, UniProt Q9UM73)
# test.details: Western-blot half degradation concentration (DC50) of ALK protein in SR cells
# Assay type: cell-based
# applied.conditions: 24 h drug treatment, read-out: DC50 (nM)/ SR cell line

// below: answered molecules
COc1cc(N2CCC(N3CCN(C(=O)CCCCCCSc4cccc5c4C(=O)N(C4CCC(=O)NC4=O)C5=O)CC3)CC2)ccc1Nc1ncc(Cl)c(Nc2ccccc2P(C)(C)=O)n1 (stereo not drawn): 4.1 nM
COc1cc(N2CCC(N3CCN(C(=O)CCCCCCSc4cccc5c4CN(C4CCC(=O)NC4=O)C5=O)CC3)CC2)ccc1Nc1ncc(Cl)c(Nc2ccccc2P(C)(C)=O)n1 (stereo not drawn): 0.1 to 10 nM
COc1cc(N2CCC(N3CCN(C(=O)CCCCSc4cccc5c4CN(C4CCC(=O)NC4=O)C5=O)CC3)CC2)ccc1Nc1ncc(Cl)c(Nc2ccccc2P(C)(C)=O)n1 (stereo not drawn): 0.1 to 10 nM
COc1cc(N2CCC(NC(=O)CCCCCSc3cccc4c3C(=O)N(C3CCC(=O)NC3=O)C4=O)CC2)ccc1Nc1ncc(Cl)c(Nc2ccccc2P(C)(C)=O)n1 (stereo not drawn): 1 to 50 nM

### Prompt Item COc1cc(N2CCC(N3CCN(C(=O)CCCSc4cccc5c4CN(C4CCC(=O)NC4=O)C5=O)CC3)CC2)ccc1Nc1ncc(Cl)c(Nc2ccccc2P(C)(C)=O)n1 (stereo not drawn) has what recorded DC50?
### Response 0.1 to 10 nM

### Prompt Item COc1cc(N2CCC(N3CCN(C(=O)CSc4cccc5c4CN(C4CCC(=O)NC4=O)C5=O)CC3)CC2)ccc1Nc1ncc(Cl)c(Nc2ccccc2P(C)(C)=O)n1 (stereo not drawn) has what recorded DC50?
### Response 0.1 to 10 nM

### Prompt Item COc1cc(N2CCC(N3CCN(CCCCCCSc4cccc5c4CN(C4CCC(=O)NC4=O)C5=O)CC3)CC2)ccc1Nc1ncc(Cl)c(Nc2ccccc2P(C)(C)=O)n1 (stereo not drawn) has what recorded DC50?
### Response 0.1 to 1 nM

### Prompt Item COc1cc(N2CCC(N3CCN(C(=O)CCSc4cccc5c4CN(C4CCC(=O)NC4=O)C5=O)CC3)CC2)ccc1Nc1ncc(Cl)c(Nc2ccccc2P(C)(C)=O)n1 (stereo not drawn) has what recorded DC50?
### Response 1 to 10 nM

### Prompt Item COc1cc(N2CCC(N3CCN(C(=O)CCSc4cccc5c4C(=O)N(C4CCC(=O)NC4=O)C5=O)CC3)CC2)ccc1Nc1ncc(Cl)c(Nc2ccccc2P(C)(C)=O)n1 (stereo not drawn) has what recorded DC50?
### Response 500 nM
